Test system: SR
method description: NCI tumour cell line growth inhibition, 48 h
The source made the active and inactive calls. Rule as the data show it: active = GI50 up to about 1.1 µM and inactive = higher.
Valid outcomes are listed here; reply with one: Y (active), N (inactive)

[
  {
    "compound": "OCC(O)C(O)C(O)c1nnn[nH]1 (stereo unspecified)",
    "target": "SR",
    "cat": "N"
  },
  {
    "compound": "CCCC(=O)OC[n+]1ccc2c(C)c3[nH]c4ccc(OC)cc4c3c(C)c2c1",
    "target": "SR",
    "cat": "Y"
  },
  {
    "compound": "CCCCCC/C=C\\CCCCCCCCC(=O)c1cccc(OC)c1OC",
    "target": "SR",
    "cat": "N"
  },
  {
    "compound": "CC(C(=O)[O-])S(=O)(=O)O.CCc1c2cc(OC)c(OC)cc2cc2c3cc(OC)c(OC)cc3cc[n+]12",
    "target": "SR",
    "cat": "N"
  },
  {
    "compound": "COC1=C2C=[N+](C)C3C(=C2C=CC1OC)Cc1cc2c(cc13)OCO2 (stereo unspecified)",
    "target": "SR",
    "cat": "Y"
  },
  {
    "compound": "O=c1cccccc1NCCCNc1cccccc1=O",
    "target": "SR",
    "cat": "N"
  },
  {
    "compound": "Cc1nnc2cc(C(=O)O)c3ccccc3n2c1=O",
    "target": "SR",
    "cat": "N"
  },
  {
    "compound": "CC(=O)OC1COC(n2nc(/C=C/c3ccc(Cl)cc3)c(=O)n(/N=C/c3ccccc3)c2=S)C(OC(C)=O)C1OC(C)=O (stereo unspecified)",
    "target": "SR",
    "cat": "N"
  },
  {
    "compound": "Cc1ccc(C)c(NC(=O)C(Cc2c[nH]c3ccccc23)NC(=O)OCc2ccccc2)c1 (stereo unspecified)",
    "target": "SR",
    "cat": "N"
  },
  {
    "compound": "Cc1nc2c(Cl)cc(Cl)cc2c(Cl)c1CCCl",
    "target": "SR",
    "cat": "N"
  }
]

Dear all, I need the recorded test outcome for N#CSCC1COc2ccccc2O1 (stereo unspecified) , thank you.
N
